system: PANC-03-27; assay: Cytotoxicity against human PANC-03-27 cells assessed as reduction in cell viability in presence of Cu2+ incubated for 72 hrs by cell titer-glo luminescent cell viability assay; assay type: functional, cell-based; details: PANC-03-27, 72 h
pIC50: −log10 of the molar value.
OUTCOME MEASURE: pIC50

>>> assay_value("CN(C)C(=S)NN=Cc1nccc2cc(F)ccc12")
9.00

Source of measurements: ChEMBL document CHEMBL4699407
